experiment: NCI Yeast Anticancer Drug Screen. Data for the rad50 strain (AID 155);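 also: 0% = growth of vehicle-only cultures of the same strain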; settings: S. cerevisiae rad50 strain growth inhibition; at 50.0 µM; stronger effect = higher value
Compounds without any hit were thinned out: in the full panel of roughly 79,000, 15% have a hit.
Use 1.0 when the recorded growth inhibition is no lower than 30%; use 0.0 when it is lower.

query: Hi team, for Cn1c([N+](=O)[O-])cnc1COc1ccc(NC(=O)CN2CCOCC2)cc1 , is the recorded growth inhibition at or above 30%?
result: 0.0

query: Hi team, for CC(C)(Br)C(=O)N1CCN(C(c2ccccc2)c2ccccc2)CC1 , is the recorded growth inhibition at or above 30%?
result: 0.0

query: Hi team, for O=c1ncc2ccccc2[nH]1 , is the recorded growth inhibition at or above 30%?
result: 0.0

query: Hi team, for CC(=O)OCCOCN1C(=O)CC(=O)NC1=O , is the recorded growth inhibition at or above 30%?
result: 0.0

query: Hi team, for CCc1ccccc1NC(=O)NCC(C)C , is the recorded growth inhibition at or above 30%?
result: 0.0

---
query: Hi team, for O=C(CC(=O)n1nc(-c2ccccc2)c(N=Nc2ccc([N+](=O)[O-])cc2)c1-c1ccccc1)Nc1ccc(Cl)cc1 , is the recorded growth inhibition at or above 30%?
result: 1.0

###

test: NCI Yeast Anticancer Drug Screen. Data for the mlh1 rad18 strain (AID 175); conditions: S. cerevisiae mlh1 rad18 strain growth inhibition; at 50.0 µM; stronger effect = higher value
About 79,000 compounds went through this panel and 15% of them were active in at least one assay; those are over-represented in the sample as a whole.
Use condition met when the recorded growth inhibition is no lower than 10%; use condition not met when it is lower.

// below: answered compounds
query: Hi team, for C=C(C)CCCCCCCCC , is the recorded growth inhibition at or above 10%?
result: condition not met

query: Hi team, for C=CC[n+]1cccc(Oc2ccc([N+](=O)[O-])cc2[N+](=O)[O-])c1 , is the recorded growth inhibition at or above 10%?
result: condition met

query: Hi team, for Cc1ccccc1N(CCC#N)C1=NN(C(=O)CC(=O)Nc2ccccc2)C(c2ccccc2)C1 (configuration not stated) , is the recorded growth inhibition at or above 10%?
result: condition not met

query: Hi team, for c1ccc(NCNC2Nc3ccccc3N2)cc1 , is the recorded growth inhibition at or above 10%?
result: condition met

query: Hi team, for C=C1CC(CCCCC2CC(=C)C(=O)O2)OC1=O (configuration not stated) , is the recorded growth inhibition at or above 10%?
result: condition not met

query: Hi team, for CCCC(C)C1CCC(=O)CC1 (configuration not stated) , is the recorded growth inhibition at or above 10%?
result: condition not met

---
query: Hi team, for O=S1(=O)c2ccccc2N2CCCc3cc(Cl)cc1c32 , is the recorded growth inhibition at or above 10%?
result: condition not met

query: Hi team, for CC(=O)NC(Cc1ccccc1)C(=O)Nc1ccc(C)cc1 (configuration not stated) , is the recorded growth inhibition at or above 10%?
result: condition met

query: Hi team, for CC(C)(C)C1=NC(S)NC(CCC(=O)Nc2ccccc2[N+](=O)[O-])=C1 (configuration not stated) , is the recorded growth inhibition at or above 10%?
result: condition not met

###

// reported growth inhibition for each item listed
assay: NCI Yeast Anticancer Drug Screen. Data for the cln2 rad14 strain (AID 165);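 also: 0% = growth equal to vehicle treated cultures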; conditions: S. cerevisiae cln2 rad14 strain, at 50.0 µM, stronger effect = higher value
About 79,000 compounds went through this panel and 15% of them were active in at least one assay; those are over-represented in the sample as a whole.
Note: unit % is implicit; provide only the numeric part.

// known answers, use as guide
query: Recorded growth inhibition for O=C(NO)C(=O)Nc1ccc(Cl)cc1[N+](=O)[O-] , please?
result: 42

query: Recorded growth inhibition for Cc1nc[nH]c(=O)c1N , please?
result: 0.9

query: Recorded growth inhibition for Cc1cc(C)nc(NS(=O)(=O)c2ccc(NC(=O)c3cccn4c(=O)c5ccccc5nc34)cc2)n1 , please?
result: 27.6

---
query: Recorded growth inhibition for COc1ccc(C2(C)C=C(C)C=C(C)C2=O)cc1 (stereo unspecified) , please?
result: -15.9

query: Recorded growth inhibition for O=C(NC(Cc1ccccc1)C(=O)NNc1ccccc1Cl)OCc1ccccc1 (stereo unspecified) , please?
result: 55.5

query: Recorded growth inhibition for C(=N\C(/N=C/c1ccccc1)c1ccccc1)/c1ccccc1 , please?
result: -43.8

###

assay: NCI Yeast Anticancer Drug Screen. Data for the cln2 rad14 strain (AID 165);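 also: 0% = growth equal to vehicle treated cultures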; settings: S. cerevisiae cln2 rad14 strain, at 50.0 µM, stronger effect = higher value
This is part of a sample that, as a whole, favours compounds with a hit. Of some 79,000 tested, about 15% had one in any assay.
quantity measured: growth inhibition (%)
Note: unit % is implicit; provide only the numeric part.

query: Recorded growth inhibition for Cc1ccc(S(=O)(=O)N/N=C2/CCC(C(C)(C)C)CC2Br)cc1 (stereo unspecified) , please?
result: -2.9

---
query: Recorded growth inhibition for Cc1n(C)c(=O)c2ccccc2[n+]1C , please?
result: -3.3

query: Recorded growth inhibition for CC1([C@H]2CC[C@H]3[C@@H]4CC[C@H]5OC(=O)CC[C@]5(C)[C@H]4CC[C@]23C)SCCS1 , please?
result: 8.6

###

// reported growth inhibition for each item listed
test: NCI Yeast Anticancer Drug Screen. Data for the bub3 strain (AID 167); conditions: S. cerevisiae bub3 mutant strain, at 50.0 µM, stronger effect = higher value
This is part of a sample that, as a whole, favours compounds with a hit. Of some 79,000 tested, about 15% had one in any assay.
Note: unit % is implicit; provide only the numeric part.

// known answers, use as guide
query: Recorded growth inhibition for CC(=O)COc1ccccc1[N+](=O)[O-] , please?
result: 1.3

query: Recorded growth inhibition for COc1ccc(C2=C(N)c3c(Cl)cccc3C2=O)cc1 , please?
result: 21.5

query: Recorded growth inhibition for O=C(O)c1cc2oc3ccccc3c2cc1O , please?
result: 2.4

query: Recorded growth inhibition for COC1=NS(=O)(=O)C2(O1)c1ccccc1-c1ccccc12 , please?
result: 25.8

query: Recorded growth inhibition for CCOC(=O)c1nc2ccccc2nc1Nc1ccc(F)cc1 , please?
result: -21.1

---
query: Recorded growth inhibition for CCC(C)OC(=Nc1ccccc1)c1ccccc1 (configuration not stated) , please?
result: -6.7

query: Recorded growth inhibition for CCC(C)NC(=O)/C=C/C(=O)NC(C)CC (configuration not stated) , please?
result: 4.95

query: Recorded growth inhibition for CN(C)c1ccc(/C=C(\C#N)c2nc(-c3cc4ccccc4oc3=O)cs2)cc1 , please?
result: -35.7

query: Recorded growth inhibition for CCN(CC)CCc1c2c(nc3ccccc13)C(=O)c1cccnc1C2=O , please?
result: 79.2

query: Recorded growth inhibition for COc1ccc(CSCc2cc(OC)c(OC)c(OC)c2)cc1 , please?
result: 51.2

query: Recorded growth inhibition for COc1ccc(/C=C/C(=O)c2c(-c3ccccc3)nn(C)c(=O)c2N2CCCCC2)cc1 , please?
result: 7.05

query: Recorded growth inhibition for CC(=O)NNc1nc(C)c(C(/C=C/c2ccc(Cl)cc2)=N/NC(=S)NN)s1 , please?
result: 11.8

###

Test: NCI Yeast Anticancer Drug Screen. Data for the sgs1 mgt1 strain (AID 161);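 also: 0% = growth of cultures given vehicle only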
Conditions: S. cerevisiae sgs1 mgt1 strain, at 50.0 µM, stronger effect = higher value
Description: Growth inhibition of yeast strains with defined genetic alterations is measured as a screen for potential anti-cancer activity. Selected strains with alterations in DNA damage repair or cell cycle control were exposed to compounds and growth inhibition was measured relative to vehicle treated controls. The strain used in this assay is sgs1 mgt1
About 79,000 compounds went through this panel and 15% of them were active in at least one assay; those are over-represented in the sample as a whole.
// reported growth inhibition for each item listed
Note: unit % is implicit; provide only the numeric part.

// known answers, use as guide
query: Recorded growth inhibition for COc1ccc(C2=C(N)c3c(Cl)cccc3C2=O)cc1 , please?
result: 30.2

query: Recorded growth inhibition for Cc1c2oc3c(C)ccc(C(=O)NCCc4ccccn4)c3nc-2c(C(=O)NCCc2ccccn2)c(N)c1=O , please?
result: 4.05

query: Recorded growth inhibition for c1ccc2c(c1)NC(C1OC3CCCN3C1C1Nc3ccccc3S1)S2 (configuration not stated) , please?
result: -28.6

---
query: Recorded growth inhibition for CSCCOC(=O)C1C2CCC(O2)C1C(=O)O (configuration not stated) , please?
result: 1.55

query: Recorded growth inhibition for CC#CC(C)(C)N(C)C , please?
result: -8.75

query: Recorded growth inhibition for CSC1=C(c2ccc(Cl)cc2)SC(N2CCCCC2)N1c1ccc([N+](=O)[O-])cc1 (configuration not stated) , please?
result: 1.7

query: Recorded growth inhibition for CCCNC1CC(n2cc(C)c(=O)[nH]c2=O)OC1CO (configuration not stated) , please?
result: -25.3

###

test: NCI Yeast Anticancer Drug Screen. Data for the cln2 rad14 strain (AID 165);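 also: 0% = growth equal to vehicle treated cultures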; details: S. cerevisiae cln2 rad14 strain, at 50.0 µM
The panel holds about 79,000 compounds, 15% with a hit somewhere; the sample as a whole holds those more often. Active and inactive are the calls of the source. Cut-off read from the data, not from the text of the source: active = growth inhibition above about 70%; inactive = the rest.
Returns: one label drawn from label 1 (active), label 0 (inactive)

query: Assay result, entry Cc1cc(Cl)ccc1NC(=O)NC(C)(C)COC(=O)Nc1cccc(Cl)c1 — outcome?
result: label 0

query: Assay result, entry Cc1cc(=O)c2cc(-c3ccccc3)ccc2[nH]1 — outcome?
result: label 0

query: Assay result, entry CC1(C)CC(C)(C)c2c1oc(=O)c1c3c(oc(=O)c21)C(C)(C)CC3(C)C — outcome?
result: label 0

query: Assay result, entry O=C1C=CC(=O)N1C(c1ccccc1)(c1ccccc1)c1ccccc1 — outcome?
result: label 1

Lab note: next molecule to report on.
query: Assay result, entry CC(=O)NC1C(O)C(O)C(CO)OC1n1nc(SCc2ccccc2)c(=O)[nH]c1=O (stereo not given) — outcome?
result: label 0
